# ASSAY SYSTEM: Akt3 (Homo sapiens, UniProt Q9Y243)
# Construct: unspecified tag, removed (detagged) (cleaved yes); purchased SignalChem and Proteros (Akt3); Merck Millipore (PDK1) 14-452 (PDK1); none given for Akt3
# Sequence (Q9Y243 whole entry): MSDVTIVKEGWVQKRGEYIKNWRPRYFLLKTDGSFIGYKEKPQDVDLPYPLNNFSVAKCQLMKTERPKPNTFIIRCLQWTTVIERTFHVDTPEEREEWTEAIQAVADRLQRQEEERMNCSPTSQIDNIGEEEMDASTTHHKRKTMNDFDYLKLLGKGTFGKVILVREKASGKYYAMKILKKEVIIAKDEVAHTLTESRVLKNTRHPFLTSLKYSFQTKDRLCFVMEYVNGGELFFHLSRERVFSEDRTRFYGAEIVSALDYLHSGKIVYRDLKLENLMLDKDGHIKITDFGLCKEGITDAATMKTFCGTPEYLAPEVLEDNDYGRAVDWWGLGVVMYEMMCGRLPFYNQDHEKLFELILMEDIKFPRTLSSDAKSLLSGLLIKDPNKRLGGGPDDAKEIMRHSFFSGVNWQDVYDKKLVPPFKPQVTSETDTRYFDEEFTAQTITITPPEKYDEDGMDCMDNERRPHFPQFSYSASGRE
# EXPERIMENTAL PROTOCOL: Akt activation assay (PDK1-mediated activation, LANCE Ultra crosstide TR-FRET), Akt3
# Format: biochemical
# MEASUREMENT SETUP: read-out: Biological Assay 1 IC50 (nM) Akt3
Would you mind telling me the reported IC50 of each entry?
The response must be a number in nM with no trailing unit.

Name the recorded IC50 for `COC(=O)N(C)[C@H]1CC[C@H](CC(=O)Nc2cc(-c3ccsc3)c(-c3ccc(C4(N)CC4)c(F)c3)nn2)CC1` .
520

Name the recorded IC50 for `COC(=O)N[C@H]1CC[C@H](CC(=O)Nc2cnc(-c3ccc(C4(N)CC(F)(F)C4)cc3)c(-c3ccccc3)c2)CC1` .
630

Name the recorded IC50 for `N[C@]1(c2ccc(-c3nnc(NC(=O)C[C@H]4CC[C@H](N5CCCC5=O)CC4)cc3-c3ccccc3)cc2)C[C@@H](F)C1` .
4

Name the recorded IC50 for `CN(C(=O)C(F)F)[C@H]1CC[C@H](CC(=O)Nc2cnc(-c3ccc(C(C)(C)N)cc3)c(-c3ccccc3)c2)CC1` .
70

Name the recorded IC50 for `CC(C)N(C(=O)C1CC1)[C@H]1CC[C@H](CC(=O)Nc2cc(-c3ccccc3)c(-c3ccc([C@]4(N)C[C@](C)(O)C4)cc3)nn2)CC1` .
8

Name the recorded IC50 for `COCCN(C)[C@H]1CC[C@H](CC(=O)Nc2cc(-c3ccccc3)c(-c3ccc([C@]4(N)C[C@](C)(O)C4)cc3)cn2)CC1` .
110

====

# ASSAY SYSTEM: Akt3 (Homo sapiens, UniProt Q9Y243)
# Construct: unspecified tag, removed (detagged) (cleaved yes); purchased SignalChem and Proteros (Akt3); Merck Millipore (PDK1) 14-452 (PDK1); none given for Akt3
# EXPERIMENTAL PROTOCOL: Akt activation assay (PDK1-mediated activation, LANCE Ultra crosstide TR-FRET), Akt3
# Assay type: biochemical
# MEASUREMENT SETUP: read-out: Biological Assay 1 IC50 (nM) Akt3
Would you mind telling me the reported IC50 of each entry?
The response must be a number in nM with no trailing unit.

Param readout= IC50; system= Akt3 (Homo sapiens, UniProt Q9Y243); entry= CC(=O)N(C)[C@H]1CC[C@H](CC(=O)Nc2cc(-c3ccsc3)c(-c3ccc([C@]4(N)C[C@H](F)C4)cc3)nn2)CC1 [Example 75] ; returns value.
18

Param readout= IC50; system= Akt3 (Homo sapiens, UniProt Q9Y243); entry= CN(C(=O)C1CC1)[C@H]1CC[C@H](CC(=O)Nc2cc(-c3ccccc3)c(-c3ccc(C4(N)CC4)cc3)nn2)CC1 [Example 87] ; returns value.
29

Param readout= IC50; system= Akt3 (Homo sapiens, UniProt Q9Y243); entry= CC(=O)NC1CCC(CC(=O)Nc2cnc(-c3ccc([C@]4(N)C[C@](C)(O)C4)cc3)c(-c3ccccc3)c2)CC1 (stereo partly drawn) [Example 2] ; returns value.
20

Param readout= IC50; system= Akt3 (Homo sapiens, UniProt Q9Y243); entry= C[C@]1(O)C[C@@](N)(c2ccc(-c3ncc(NC(=O)C[C@H]4CC[C@H](N5CCOCC5)CC4)cc3-c3ccccc3)cc2)C1 [Example A15] ; returns value.
290

Param readout= IC50; system= Akt3 (Homo sapiens, UniProt Q9Y243); entry= COC(=O)N(C)[C@H]1CC[C@H](CC(=O)Nc2cnc(-c3ccc([C@]4(N)C[C@](C)(O)C4)cc3)c(-c3ccccc3)c2)CC1 [Example 44] ; returns value.
22

Param readout= IC50; system= Akt3 (Homo sapiens, UniProt Q9Y243); entry= CC(=O)N(C(C)C)[C@H]1CC[C@H](CC(=O)Nc2cc(-c3ccccc3)c(-c3ccc([C@]4(N)C[C@](C)(O)C4)cc3)cn2)CC1 [Example 102] ; returns value.
16

====

Would you mind telling me the reported IC50 of each entry?
# ASSAY SYSTEM: p-Akt2 in WM115 cells (Homo sapiens, UniProt P31751)
# Construct: SureFire assays to detect cellular p-Akt1, p-Akt2 and p-Akt3 levels in WM115 cells (Akt2/3) and LNCaP cells (Akt1); endogenous in cells; host or cells: WM115 (ECACC 91061232), insulin-stimulated
# Sequence (P31751 whole entry): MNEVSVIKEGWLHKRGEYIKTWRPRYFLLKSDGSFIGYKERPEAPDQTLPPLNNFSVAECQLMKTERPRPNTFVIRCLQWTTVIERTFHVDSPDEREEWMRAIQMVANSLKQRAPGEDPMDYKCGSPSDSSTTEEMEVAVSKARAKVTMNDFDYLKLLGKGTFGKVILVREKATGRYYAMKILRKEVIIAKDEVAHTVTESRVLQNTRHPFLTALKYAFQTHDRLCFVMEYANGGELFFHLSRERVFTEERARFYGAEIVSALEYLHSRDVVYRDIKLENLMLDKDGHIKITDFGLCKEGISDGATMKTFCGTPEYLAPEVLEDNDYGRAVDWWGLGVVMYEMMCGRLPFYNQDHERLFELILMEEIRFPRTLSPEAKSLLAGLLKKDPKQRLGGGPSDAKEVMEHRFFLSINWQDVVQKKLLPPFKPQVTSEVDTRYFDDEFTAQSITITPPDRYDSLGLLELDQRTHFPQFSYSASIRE
# EXPERIMENTAL PROTOCOL: Phospho-Akt cellular SureFire assay, p-Akt2 in WM115 cells
# Assay type: cell-based
# MEASUREMENT SETUP: insulin stimulated, read-out: Biological Assay 2 IC50 (nM) Akt2 WM115
The response must be a number in nM with no trailing unit.

Name the recorded IC50 for COC(=O)N(C(C)C)[C@H]1CC[C@H](CC(=O)Nc2cc(-c3ccccc3)c(-c3ccc([C@]4(N)C[C@](C)(O)C4)cc3)cn2)CC1 [Example A105] .
5100

Name the recorded IC50 for CCN(C(=O)OC)[C@H]1CC[C@H](CC(=O)Nc2cnc(-c3ccc([C@]4(N)C[C@](C)(O)C4)cc3)c(-c3ccccc3)c2)CC1 [Example 118] .
230

Name the recorded IC50 for COCCN(C)[C@H]1CC[C@H](CC(=O)Nc2cc(-c3ccccc3)c(-c3ccc([C@]4(N)C[C@](C)(O)C4)cc3)cn2)CC1 [Example 128] .
810

Name the recorded IC50 for CC(=O)N(C)[C@H]1CC[C@H](CC(=O)Nc2cc(-c3ccccc3)c(-c3ccc([C@]4(N)C[C@](C)(O)C4)c(F)c3)nn2)CC1 [Example 127] .
2900

Name the recorded IC50 for CCOC(=O)N(C)[C@H]1CC[C@H](CC(=O)Nc2cnc(-c3ccc([C@]4(N)C[C@](C)(O)C4)cc3)c(-c3ccccc3)c2)CC1 [Example 97] .
600

Name the recorded IC50 for COC(=O)N(C)[C@H]1CC[C@H](C(F)C(=O)Nc2cnc(-c3ccc(C4(N)CCC4)cc3)c(-c3ccccc3)c2)CC1 (relative stereo) [Example 52] .
5000

====

# ASSAY SYSTEM: Akt3 (Homo sapiens, UniProt Q9Y243)
# Construct: unspecified tag, removed (detagged) (cleaved yes); purchased SignalChem and Proteros (Akt3); Merck Millipore (PDK1) 14-452 (PDK1); none given for Akt3
# EXPERIMENTAL PROTOCOL: Akt activation assay (PDK1-mediated activation, LANCE Ultra crosstide TR-FRET), Akt3
# Assay type: biochemical
# MEASUREMENT SETUP: read-out: Biological Assay 1 IC50 (nM) Akt3
READOUT TYPE: IC50
Note: a bare number is incomplete; add the unit.

Name the recorded IC50 for `CCC(=O)N(C)[C@H]1CC[C@H](CC(=O)Nc2cnc(-c3ccc([C@]4(N)C[C@](C)(O)C4)cc3)c(-c3ccccc3)c2)CC1` .
5 nM

Name the recorded IC50 for `CC(=O)N(C)[C@H]1CC[C@H](CC(=O)Nc2cc(-c3ccsc3)c(-c3ccc([C@]4(N)C[C@](C)(O)C4)cc3)cn2)CC1` .
10 nM

Name the recorded IC50 for `CC(C)(N)c1ccc(-c2ncc(NC(=O)C[C@H]3CC[C@H](C(=O)N4CCOCC4)CC3)cc2-c2ccccc2)cc1` .
1000 nM

====

# ASSAY SYSTEM: Akt2 (Homo sapiens)
# Construct: unspecified tag, removed (detagged) (cleaved yes); purchased SignalChem and Proteros (Akt2); Merck Millipore (PDK1) 14-452 (PDK1); none given for Akt2
# Sequence (P31751 whole entry): as above
# EXPERIMENTAL PROTOCOL: Akt activation assay (PDK1-mediated activation, LANCE Ultra crosstide TR-FRET), Akt2
# Assay type: biochemical
# MEASUREMENT SETUP: read-out: Biological Assay 1 IC50 (nM) Akt2
# Procedure: Biological Assay 1: Akt Activation Assay Addition of a Europium-labelled antibody specific to the phosphopeptide allows energy transfer from the Europium donor to the Ultra Ulight™ acceptor if close enough in proximity. […] 5 μL enzyme in 1×AB was incubated with 2.5 μL test compound. […] Plates read with the EnVision® Multilabel Plate Reader, excitation at 320 nm and emission at 665 nm and 615 nm. Compound IC50 was determined using a 4-parameter equation.
READOUT TYPE: IC50 (nM)
The response must be a number in nM with no trailing unit.

Name the recorded IC50 for COC(=O)N(C)[C@H]1CC[C@H](CC(=O)Nc2cc(-c3ccsc3)c(-c3ccc(C(C)(C)N)cc3)nn2)CC1 [Example A69] .
12000

Name the recorded IC50 for CN([C@H]1CC[C@H](CC(=O)Nc2cnc(-c3ccc(C(C)(C)N)cc3)c(-c3ccsc3)c2)CC1)S(C)(=O)=O [Example A24] .
9600

Name the recorded IC50 for Cc1nncn1[C@H]1CC[C@H](CC(=O)Nc2cnc(-c3ccc(C(C)(C)N)cc3)c(-c3ccccc3)c2)CC1 [Example 23] .
11000

Name the recorded IC50 for CCC(=O)N(C)[C@H]1CC[C@H](CC(=O)Nc2cc(-c3ccccc3F)c(-c3ccc(C4(N)CCC4)cc3)cn2)CC1 [Example A102] .
100

Name the recorded IC50 for NC1(c2ccc(-c3cnc(NC(=O)C[C@H]4CC[C@H](N5CCCC5=O)CC4)cc3-c3ccccc3)cc2)CCC1 [Example A71] .
110

Name the recorded IC50 for CC(C)N(C(=O)C1CC1)[C@H]1CC[C@H](CC(=O)Nc2cc(-c3ccccc3)c(-c3ccc([C@]4(N)C[C@](C)(O)C4)cc3)nn2)CC1 [Example 105] .
210

Name the recorded IC50 for C[C@]1(O)C[C@@](N)(c2ccc(-c3nnc(NC(=O)C[C@H]4CC[C@H](N5CCOC5=O)CC4)cc3-c3ccccc3)cc2)C1 [Example 58] .
98

Name the recorded IC50 for CCC(=O)N(C)[C@H]1CC[C@H](CC(=O)Nc2cc(-c3ccsc3)c(-c3ccc(C(C)(C)N)cc3)nn2)CC1 [Example 88] .
8600

Name the recorded IC50 for CCC(=O)N(C(C)C)[C@H]1CC[C@H](CC(=O)Nc2cnc(-c3ccc([C@]4(N)C[C@](C)(O)C4)cc3)c(-c3ccccc3)c2)CC1 [Example 122] .
87

Name the recorded IC50 for NC1(c2ccc(-c3ncc(NC(=O)C[C@H]4CC[C@H](N5CCCCC5=O)CC4)cc3-c3ccsc3)cc2)CCC1 [Example A14] .
1800

Name the recorded IC50 for C[C@]1(O)C[C@@](N)(c2ccc(-c3ncc(NC(=O)C[C@H]4CC[C@H](N5CCOCC5)CC4)cc3-c3ccccc3)cc2)C1 [Example A15] .
350

Name the recorded IC50 for COC(=O)N(C(C)C)[C@H]1CC[C@H](CC(=O)Nc2cc(-c3ccccc3)c(-c3ccc([C@]4(N)C[C@](C)(O)C4)cc3)nn2)CC1 [Example 101] .
120

Name the recorded IC50 for C[C@]1(O)C[C@@](N)(c2ccc(-c3ncc(NC(=O)C[C@H]4CC[C@H](NC(=O)C(F)F)CC4)cc3-c3ccccc3)cc2)C1 [Example A5] .
43

Name the recorded IC50 for CN(C(=O)C1CC1)[C@H]1CC[C@H](CC(=O)Nc2cc(-c3ccccc3)c(-c3ccc(C4(N)CC4)cc3)nn2)CC1 [Example 87] .
510

Name the recorded IC50 for COC(=O)N(C)[C@H]1CC[C@H](CC(=O)Nc2cc(-c3ccsc3)c(-c3ccc([C@]4(N)C[C@H](F)C4)cc3)nn2)CC1 [Example A70] .
1100

Name the recorded IC50 for COC(=O)N(C)[C@H]1CC[C@H](CC(=O)Nc2cc(-c3ccccc3)c(-c3ccc(C4(N)CCC4)cc3)nn2)CC1 [Example A55] .
380

Name the recorded IC50 for COC(=O)N(C)[C@H]1CC[C@H](CC(=O)Nc2cnc(-c3ccc([C@]4(N)C[C@H](F)C4)cc3)c(-c3ccccc3)c2)CC1 [Example 77] .
1100

Name the recorded IC50 for CCOC(=O)N(C)[C@H]1CC[C@H](CC(=O)Nc2cc(-c3ccccc3)c(-c3ccc(C4(N)CC4)cc3)nn2)CC1 [Example A94] .
2200

Name the recorded IC50 for CC(=O)N(C(C)C)[C@H]1CC[C@H](CC(=O)Nc2cnc(-c3ccc(C4(N)CCC4)cc3)c(-c3ccccc3)c2)CC1 [Example 49] .
530

Name the recorded IC50 for NC1(c2ccc(-c3ncc(NC(=O)C(F)C4CCN(S(=O)(=O)C5CC5)CC4)cc3-c3ccccc3)cc2)CCC1 (centres unmarked) [Example 40] .
440

Name the recorded IC50 for CC(=O)N[C@H]1CC[C@H](CC(=O)Nc2cnc(-c3ccc(C4(N)CC(F)(F)C4)cc3)c(-c3ccccc3)c2)CC1 [Example 25] .
270

Name the recorded IC50 for CC(=O)N[C@H]1CC[C@H](CC(=O)Nc2cnc(-c3ccc([C@H](C)N)cc3)c(-c3ccccc3)c2)CC1 [Example A8] .
6900

Name the recorded IC50 for CN(C1CCC(CC(=O)Nc2cnc(-c3ccc(C(C)(C)N)cc3)c(-c3ccccc3)c2)CC1)C1(C)COC1 (centres unmarked) [Example 35] .
25000

Name the recorded IC50 for NC1(c2ccc(-c3nnc(NC(=O)C[C@H]4CC[C@H](N5CCOC5=O)CC4)cc3-c3ccccc3)cc2)CC(F)(F)C1 [Example 61] .
200
